Reference for the values: paper PMC10799935

Biological target: 5HT2A (Homo sapiens, UniProt P28223)
Sequence (P28223 whole entry): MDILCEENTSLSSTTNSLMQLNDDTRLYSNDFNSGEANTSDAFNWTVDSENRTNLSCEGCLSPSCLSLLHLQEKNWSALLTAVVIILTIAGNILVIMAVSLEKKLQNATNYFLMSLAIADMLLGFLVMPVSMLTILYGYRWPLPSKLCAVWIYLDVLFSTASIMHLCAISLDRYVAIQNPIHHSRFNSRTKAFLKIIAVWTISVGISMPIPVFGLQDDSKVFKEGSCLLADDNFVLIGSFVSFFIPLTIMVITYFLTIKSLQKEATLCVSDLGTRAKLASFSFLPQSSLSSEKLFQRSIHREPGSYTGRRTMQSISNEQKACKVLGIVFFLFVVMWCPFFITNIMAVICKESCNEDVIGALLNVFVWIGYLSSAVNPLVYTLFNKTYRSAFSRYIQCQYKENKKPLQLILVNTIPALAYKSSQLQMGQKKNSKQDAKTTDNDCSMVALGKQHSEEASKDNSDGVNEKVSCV
Assay: Human 5HT2A inhibition assay (FLIPR calcium 6, 5HT stimulus, stably transfected HEK293 cells)
Assay type: cell-based
Design: expressed in transfected cells; host or cells: HEK293
Settings: HEK293, 1 μM; read-out: % Inhibition at 1 μM (SD)
readout: inhibition at 1 µM
Answer with the value and then the unit.

Sample Cc1nc2n(c(=O)c1CCN1CCC(=C3c4ccc(Cl)cc4CCc4cccnc43)CC1)CCCC2 [Compound 11b] ; inhibition at 1 µM observed: 92.6%

Briefly, inhibition at 1 µM measured for OC(CN1CCC(=C2c3ccc(Cl)cc3CCc3cccnc32)CC1)c1ccc(Br)cc1 (stereo not shown) [Compound 9a] : 92%

Lab note: measured inhibition at 1 µM of O=C1Cc2cc(C(O)CN3CCC(=C4c5ccc(Cl)cc5CCc5cccnc54)CC3)c(Cl)cc2N1 (stereo not shown) [Compound 9c] was 93.8%

Entry O=C(CN1CCC(=C2c3ccc(Cl)cc3CCc3cccnc32)CC1)c1ccc(Br)cc1 [Compound 8a] — recorded inhibition at 1 µM = 83.2%

For record Cc1nc2n(c(=O)c1CCN1CCC(=C3c4ccc(Cl)cc4CCc4cccnc43)CC1)CCCC2O (stereo not shown) [Compound 11c] the listed inhibition at 1 µM is 92.6%

Memo: O=C1Cc2cc(C(=O)CN3CCC(=C4c5ccc(Cl)cc5CCc5cccnc54)CC3)c(Cl)cc2N1 [Compound 8c] , reported inhibition at 1 µM: 73%

Input Cc1nc2n(c(=O)c1CCN1CCC(=C3c4ccccc4CCc4cccnc43)CC1)CCCC2O (stereo not shown) [Compound 11e] . Output inhibition at 1 µM: 89.2%

Lab note: O=C1Cc2cc(C(=O)CN3CCC(=C4c5ccc(Cl)cc5CCc5cccnc54)CC3)ccc2N1 [Compound 8b] gave inhibition at 1 µM of 68%

# inhibition at 1 µM (molecule: CN1CCC(=C2c3ccc(Cl)cc3CCc3cccnc32)CC1 [Compound 6] ) is 90%

// recorded inhibition at 1 µM for O=C1Cc2cc(C(O)CN3CCC(=C4c5ccc(Cl)cc5CCc5cccnc54)CC3)ccc2N1 (stereo not shown) [Compound 9b] : 92.2%

###

Test: Pharmacokinetic study in rats
Type: in vivo, Sprague-Dawley rats
Settings: male, Sprague-Dawley, plasma, 5 mg/kg; rat, IV (5 mpk)
readout: AUC (ng·h/mL)
Answer format: numeric, ng·h/mL implied, no suffix.

Form: molecule = Cc1nc2n(c(=O)c1CCN1CCC(=C3c4ccc(Cl)cc4CCc4cccnc43)CC1)CCCC2O (stereo not shown) [Compound 11c] ; AUC = 1550

###

Test: in vitro
Settings: mouse, plasma
readout: remaining at 4 h

For Cc1nc2n(c(=O)c1CCN1CCC(=C3c4ccc(Cl)cc4CCc4cccnc43)CC1)CCCC2O (stereo not shown) [Compound 11c] the molecule record lists remaining at 4 h as > 99.9%

###

Biological target: UniProt P34969
Sequence (P34969 whole entry): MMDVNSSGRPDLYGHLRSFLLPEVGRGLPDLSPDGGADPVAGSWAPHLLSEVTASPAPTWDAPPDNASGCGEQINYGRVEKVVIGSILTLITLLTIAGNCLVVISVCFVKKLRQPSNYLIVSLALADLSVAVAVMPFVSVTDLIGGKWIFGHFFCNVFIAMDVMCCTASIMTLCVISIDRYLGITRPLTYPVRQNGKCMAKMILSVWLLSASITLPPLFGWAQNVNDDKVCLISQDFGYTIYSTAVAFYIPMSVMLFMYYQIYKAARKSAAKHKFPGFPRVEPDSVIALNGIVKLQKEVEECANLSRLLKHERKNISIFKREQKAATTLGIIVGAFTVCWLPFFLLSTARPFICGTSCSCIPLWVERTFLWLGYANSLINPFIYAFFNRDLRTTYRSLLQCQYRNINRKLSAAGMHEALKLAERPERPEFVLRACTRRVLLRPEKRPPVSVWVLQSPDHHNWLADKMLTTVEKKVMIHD
Assay: 5HT subtype antagonism assay (Eurofins Cerep): 5HT7
Details: read-out: Selectivity 7: IC50
readout: IC50
Don't forget the unit after the number, please.

Measured IC50 for this entry Cc1nc2n(c(=O)c1CCN1CCC(=C3c4ccc(Cl)cc4CCc4cccnc43)CC1)CCCC2O (stereo not shown) [Compound 11c] on UniProt P34969: 100 nM
